Tested on: SARS-CoV-2
MEASUREMENT_PROTOCOL: Antiviral activity against SARS CoV-2 infected in african green monkey Vero E6 cells assessed as inhibition of viral growth preincubated with cells for 1 hr followed by viral addition for 1 hr with subsequent compound washout and measured after 24 hrs of compound replacement by qRT-PCR analysis
Format: functional, organism-based
CONDITION_SET: Severe acute respiratory syndrome coronavirus 2, Vero C1008
METRIC_NAME: IC50

See these solved cases before continuing.
> print(dat)
                                smiles.code  measured.target  value.reported
1  CCCCCNC(=O)c1ccc2cc1Oc1ccc(cc1)C[C@H]1c3c(cc(OC)c(OC)c3Oc3cc4c(cc3OC)CCN(C)[C@@H]4C2)CCN1C       SARS-CoV-2         2.52 µM
2  COc1cc2c3cc1Oc1c(OC)c(OC)cc4c1[C@H](Cc1ccc(cc1)Oc1cc(ccc1C(=O)N1CCCCC1)C[C@H]3N(C)CC2)N(C)CC4       SARS-CoV-2          1.6 µM
3  CNC(=O)c1ccc2cc1Oc1ccc(cc1)C[C@H]1c3c(cc(OC)c(OC)c3Oc3cc4c(cc3OC)CCN(C)[C@@H]4C2)CCN1C       SARS-CoV-2         2.51 µM
4  C=CC(=O)Nc1ccc2cc1Oc1ccc(cc1)C[C@H]1c3c(cc(OC)c(OC)c3Oc3cc4c(cc3OC)CCN(C)[C@@H]4C2)CCN1C       SARS-CoV-2         1.85 µM

Please give IC50 for each item listed below.
1. COC(=O)c1ccc2cc1Oc1ccc(cc1)C[C@H]1c3c(cc(OC)c(OC)c3Oc3cc4c(cc3OC)CCN(C)[C@@H]4C2)CCN1C
2. COc1cc2c3cc1Oc1c(OC)c(OC)cc4c1[C@H](Cc1ccc(cc1)Oc1cc(ccc1C(=O)NC(C)C)C[C@H]3N(C)CC2)N(C)CC4
3. COc1cc2c3cc1Oc1c(OC)c(OC)cc4c1[C@H](Cc1ccc(cc1)Oc1cc(cc([N+](=O)[O-])c1O)C[C@H]3N(C)CC2)N(C)CC4

["0.84 µM", "1.02 µM", "> 5 µM"]
